Experiment: Inhibition of metallo beta lactamase VIM4 assessed as residual enzyme activity at 100 uM
value kind: Activity (%)
Response body: numeric value in %, unit text excluded.

molecule=O=C(O)c1ccnc(C(=O)O)c1 value_kind=Activity unit_tag=% measured=90
molecule=O=C(O)c1ccc(C(=O)O)nc1 value_kind=Activity unit_tag=% measured=97
molecule=O=C(O)c1ccncc1C(=O)O value_kind=Activity unit_tag=% measured=100
molecule=O=C(O)c1ccccn1 value_kind=Activity unit_tag=% measured=59
molecule=O=C(O)c1cccc(C(=O)O)n1 value_kind=Activity unit_tag=% measured=88

Kindly review the next molecule as well.
Ask: For the molecule "O=C(O)c1cccnc1C(=O)O" , give its measured Activity value.
Reply: 73

----------
Biological target: Metallo beta-lactamase (Pseudomonas aeruginosa) (UniProt Q6TUJ4)
Sequence (Q6TUJ4 as listed by the source): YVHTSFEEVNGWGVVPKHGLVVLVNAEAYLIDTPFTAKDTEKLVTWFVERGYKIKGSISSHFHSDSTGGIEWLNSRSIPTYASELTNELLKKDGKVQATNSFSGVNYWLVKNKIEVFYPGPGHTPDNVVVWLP
Experiment: Inhibition of Pseudomonas aeruginosa 101/1477 metallo beta lactamase IMP1 expressed in Escherichia coli assessed as residual enzyme activity at 100 uM in absence of zinc
Label scheme for Activity: lower than 90% is F, 90% and above is T.

Ask: Check the entry "O=C(O)c1ccnc(C(=O)O)c1" : does Activity equal or exceed 90%?
Reply: T

Ask: Check the entry "O=C(O)c1ccc(C(=O)O)nc1" : does Activity equal or exceed 90%?
Reply: T

Ask: Check the entry "O=C(O)c1cccc(C(=O)O)n1" : does Activity equal or exceed 90%?
Reply: F

Ask: Check the entry "O=C(O)c1ccccn1" : does Activity equal or exceed 90%?
Reply: F

----------
Tested on: Fluoribacter gormanii
Assay: Inhibition of Legionella gormani beta lactamase metallo FEZ1 expressed in Escherichia coli assessed as residual enzyme activity at 100 uM
Measured Activity accompanies every entry in the list below.
Response body: numeric value in %, unit text excluded.

Answered examples (5):
molecule=O=C(O)c1ccc(C(=O)O)nc1 study_system="Fluoribacter gormanii" value_kind=Activity measured=80
molecule=O=C(O)c1cccnc1C(=O)O study_system="Fluoribacter gormanii" value_kind=Activity measured=62
molecule=O=C(O)c1cccc(C(=O)O)n1 study_system="Fluoribacter gormanii" value_kind=Activity measured=77
molecule=O=C(O)c1ccncc1C(=O)O study_system="Fluoribacter gormanii" value_kind=Activity measured=93
molecule=O=C(O)c1ccccn1 study_system="Fluoribacter gormanii" value_kind=Activity measured=62

Kindly review the next molecule as well.
Ask: For the molecule "O=C(O)c1ccnc(C(=O)O)c1" , give its measured Activity value.
Reply: 65

----------
Measured Activity accompanies every entry in the list below.
Target: Metallo beta-lactamase (Pseudomonas aeruginosa) (UniProt Q6TUJ4)
Test: Inhibition of Pseudomonas aeruginosa 101/1477 metallo beta lactamase IMP1 expressed in Escherichia coli assessed as residual enzyme activity at 100 uM in presence of zinc chloride
Response body: numeric value in %, unit text excluded.

molecule=O=C(O)c1ccc(C(=O)O)nc1 study_system="Metallo beta-lactamase (Pseudomonas aeruginosa) (UniProt Q6TUJ4)" measured=81
molecule=O=C(O)c1ccncc1C(=O)O study_system="Metallo beta-lactamase (Pseudomonas aeruginosa) (UniProt Q6TUJ4)" measured=88
molecule=O=C(O)c1ccccn1 study_system="Metallo beta-lactamase (Pseudomonas aeruginosa) (UniProt Q6TUJ4)" measured=54
molecule=O=C(O)c1cccnc1C(=O)O study_system="Metallo beta-lactamase (Pseudomonas aeruginosa) (UniProt Q6TUJ4)" measured=67
molecule=O=C(O)c1ccnc(C(=O)O)c1 study_system="Metallo beta-lactamase (Pseudomonas aeruginosa) (UniProt Q6TUJ4)" measured=78

Kindly review the next compound as well.
Ask: For the compound "O=C(O)c1cccc(C(=O)O)n1" , give its measured Activity value.
Reply: 72

----------
Measured Activity accompanies every entry in the list below.
Tested on: Bacillus cereus
Assay: Inhibition of Bacillus cereus metallo beta lactamase Bc2 assessed as residual enzyme activity at 100 uM
Response body: numeric value in %, unit text excluded.

molecule=O=C(O)c1cccnc1C(=O)O study_system="Bacillus cereus" value_kind=Activity measured=98
molecule=O=C(O)c1ccc(C(=O)O)nc1 study_system="Bacillus cereus" value_kind=Activity measured=99
molecule=O=C(O)c1ccccn1 study_system="Bacillus cereus" value_kind=Activity measured=95
molecule=O=C(O)c1ccnc(C(=O)O)c1 study_system="Bacillus cereus" value_kind=Activity measured=97
molecule=O=C(O)c1cccc(C(=O)O)n1 study_system="Bacillus cereus" value_kind=Activity measured=95

Ask: For the molecule "O=C(O)c1ccncc1C(=O)O" , give its measured Activity value.
Reply: 97

----------
Measured Activity accompanies every entry in the list below.
Assay: Inhibition of metallo beta lactamase VIM2 assessed as residual enzyme activity at 100 uM
Response body: numeric value in %, unit text excluded.

Ask: For the molecule "O=C(O)c1cccnc1C(=O)O" , give its measured Activity value.
Reply: 106

Ask: For the molecule "O=C(O)c1ccc(C(=O)O)nc1" , give its measured Activity value.
Reply: 97

Ask: For the molecule "O=C(O)c1ccccn1" , give its measured Activity value.
Reply: 80

Ask: For the molecule "O=C(O)c1ccnc(C(=O)O)c1" , give its measured Activity value.
Reply: 98

Ask: For the molecule "O=C(O)c1ccncc1C(=O)O" , give its measured Activity value.
Reply: 92

Ask: For the molecule "O=C(O)c1cccc(C(=O)O)n1" , give its measured Activity value.
Reply: 96

----------
Target: Beta-lactamase L1 (Stenotrophomonas maltophilia)
Experiment: Inhibition of Stenotrophomonas maltophilia metallo beta lactamase L1 assessed as residual enzyme activity at 100 uM
value kind: Activity (%)
Response body: numeric value in %, unit text excluded.

Answered examples (3):
molecule=O=C(O)c1ccccn1 value_kind=Activity unit_tag=% measured=29
molecule=O=C(O)c1ccc(C(=O)O)nc1 value_kind=Activity unit_tag=% measured=94
molecule=O=C(O)c1cccc(C(=O)O)n1 value_kind=Activity unit_tag=% measured=92

Ask: For the compound "O=C(O)c1ccnc(C(=O)O)c1" , give its measured Activity value.
Reply: 78

Ask: For the compound "O=C(O)c1cccnc1C(=O)O" , give its measured Activity value.
Reply: 93

Ask: For the compound "O=C(O)c1ccncc1C(=O)O" , give its measured Activity value.
Reply: 97
